Data provenance is the Human Domainome abundance scans (Beltran et al. 2025).

B1: Poly(rC)-binding protein 1, residues 278 to 350; numbered along this chain, Q15365 (parent)
chain: TQTTHELTIPNNLIGCIIGRQGANINEIRQMSGAQIKIANPVEGSSGRQVTITGSAASISLAQYLINARLSSE

Variants of: B1
Test: abundance fitness (aPCA) (normalised: wild type 0, dead -1); higher = more abundant; growth selection in yeast, the domain comes from the species named
Settings: Homo sapiens
measurementLabel: abundance fitness
// response body must contain only the number

Consider the variant "L61T" . State its measured abundance fitness.
0.139

Consider the variant "I52P" . State its measured abundance fitness.
-0.698

Consider the variant "N11W" . State its measured abundance fitness.
-0.425

Consider the variant "S72I" . State its measured abundance fitness.
-0.448

Consider the variant "V42Q" . State its measured abundance fitness.
-0.159

Consider the variant "T8Q" . State its measured abundance fitness.
-0.076

Consider the variant "M31L" . State its measured abundance fitness.
-0.009

Consider the variant "N67Y" . State its measured abundance fitness.
0.002
